Test system: HS 578T breast
ASSAY_NOTES: NCI tumour cell line growth inhibition, 48 h
ENDPOINT_LABEL: TGI

Query string: Query (compound): "COC(=O)c1cc(C#N)[nH]c1-c1ccsc1" ; field requested: TGI
Result string: > 100 µM

Query string: Query (compound): O=C1c2ccccc2C(=O)c2c(OCC3CO3)ccc(OCC3CO3)c21 (stereo not drawn) ; field requested: TGI
Result string: 36.8 µM

Query string: Query (compound): CC1CCCOc2ccc(cc2)C=Nc2ccc(cc2)CCc2ccc(cc2)N=Cc2ccc(cc2)OCCC1 (stereo not drawn) ; field requested: TGI
Result string: > 100 µM
